# details: 328.15 K; 45000 kPa; Liquid; Vibrating tube method
result.type: mass density (kg/m3)
Report the value in kg/m3 with no unit label.

## Task Need mass density, item CCCCCO
## Result 820

## Task Need mass density, item CCCCCCO
## Result 823.5

## Task Need mass density, item CCO
## Result 797.8

## Task Need mass density, item CCCCCCCCCO
## Result 830.7

## Task Need mass density, item CCCCCCCCO
## Result 829.1

## Task Need mass density, item CCCCO
## Result 815.8

## Task Need mass density, item CCCCCCCCCCCO
## Result 834.4

## Task Need mass density, item CCCCCCCO
## Result 826.6

## Task Need mass density, item CCCCCCCCCCO
## Result 832.6

## Task Need mass density, item CCCO
## Result 810.6
